Source of measurements: PubChem BioAssay (NCATS)

- Test Name: Primary qHTS to identify inhibitors of SARS-CoV-2 cell entry (AID 1645846); further: nearly all actives have a fitted effect of over 45% in size
- Conditions Used: SARS-CoV-2 pseudovirus cell entry assay, luminescence; at 57.1 µM (top of the series) unless noted
Inconclusive results are not listed.
Property Name: activity change, negative = inhibition (%)
One number for each entry, in %.

CCOC(=O)[C@H](CCc1ccccc1)N[C@H](C)C(=O)N1C2CCCCC2C[C@H]1C(=O)O (stereo partly drawn): -29.8

Exam item: Name the recorded activity change, negative = inhibition for `CC(/C=C/[C@@H]1C[C@]1(C)c1ccc2c(c1)C(C)(C)CCC2(C)C)=C\C(=O)O` .
Marked response: -10.9

----------
- Test system: W2
- Test Name: qHTS profiling for inhibitors of Plasmodium falciparum proliferation (AID 504749); further: nearly all actives have a fitted effect of over 60% in size; further: potency means the concentration at half of the fitted maximal effect
- Conditions Used: P. falciparum in erythrocytes, SYBR Green DNA, 72 h; series mostly up to 12.8 µM
Inconclusive results are not listed. Calls of active or inactive are those of the source. Calls come from the whole dose curve; as a rule, active = well fitted inhibition curve with a large enough effect; inconclusive = small, poorly fitted or top-dose-only effect; inactive = flat fitted curve, though single readings scatter.
Property Name: Potency

Example entries and their recorded answers appear below.
O=[As]O[As]=O (stereo unspecified): 4.26 µM (active)
N[C@H]1C[C@H]1c1ccccc1: inactive
CC(C)(O)C1C2OC(=O)C1[C@]1(O)C[C@H]3O[C@]34C(=O)O[C@H]2[C@]14C (stereo partly specified) (tested in a mixture with another compound): inactive
[Hg+][c]1ccccc1: 12 µM (active)
C[C@@]12CCC(=O)C=C1C=C[C@H]1[C@H]3CC[C@](O)(CCC(=O)O)[C@]3(C)CC[C@@H]12: 5.73 µM (active)
C#CCN(C)[C@@H](C)Cc1ccccc1: inactive

Parameters: items (list). Returns: Potency for each item.
1. C[N+]1(C)[C@@H]2CC[C@H]1CC(OC(=O)[C@@H](CO)c1ccccc1)C2 (stereo partly specified)
2. CNC(C)[C@@H](O)c1ccc(O)cc1 (stereo partly specified)

Marked response:
["inactive", "inactive"]

----------
Please go through the items and note down their max response.
- Target Desc: Peroxisome proliferator-activated receptor alpha (Homo sapiens)
- Test Name: qHTS assay for small molecule agonists of the peroxisome proliferator-activated receptor alpha (PPARalpha) signaling pathway (AID 651778); further: % of control where 0% means no effect
- Conditions Used: PathHunter PPARalpha complementation, chemiluminescence, 6 h; stronger effect = higher value
Answers are plain numbers, in %.

Example entries and their recorded answers appear below.
O=[N+]([O-])c1ccc(Cl)c(Cl)c1: -3.39
C=CC(=O)OCC: -5.18
CCCCSP(=O)(SCCCC)SCCCC: 3.39

Parameters: items (list). Returns: max response for each item.
1. CCN(CC)c1ccccc1
2. CNC(=O)N(C)c1nnc(C(C)(C)C)s1

Marked response:
-1.88
-3.93

----------
- Test Name: Primary qHTS to identify inhibitors of SARS-CoV-2 cell entry (AID 1645846); further: nearly all actives have a fitted effect of over 45% in size
- Conditions Used: SARS-CoV-2 pseudovirus cell entry assay, luminescence
Results filed as inconclusive are left out. The source made the active and inactive calls. The call rests on the fitted dose curve. Peptide text beside a SMILES is read from it.
Parameter call: string, one of yes (1) (active), no (0) (inactive)

The examples below pair each entry with its known result.
CC(=O)NCC(=O)N1[C@@H]2CC[C@H]1c1ccc(Nc3ncc(C(F)(F)F)c(NC4CCC4)n3)cc12: yes (1)
C[C@H]1CC2[C@@H]3CCC4=CC(=O)C=C[C@]4(C)[C@@]3(F)[C@@H](O)C[C@]2(C)[C@@]1(O)C(=O)CO (some centres not stated): no (0)
CC(=O)O/N=C1/C(c2c(O)[nH]c3cc(Br)ccc23)=Nc2ccccc21: no (0)
O=c1ncccn1[C@@H]1O[C@H](CO)[C@@H](O)[C@H]1O: no (0)
CC1CCC(C(C)C)C(OC(=O)c2ccccc2O)C1 (configuration not stated): no (0)

Exam item: So what was the verdict on `CN[C@@H](C)C(=O)N[C@@H]1C(=O)N(Cc2c(C)ccc3ccccc23)c2ccc(C#N)cc2N(C(C)=O)[C@H]1C` in this test?
Marked response: no (0)

Exam item: So what was the verdict on `CN(C)CCNC(=O)NC[C@H]1CC[C@@H]2[C@H](O1)c1cc(C(F)(F)F)ccc1N[C@H]2c1ccccc1` in this test?
Marked response: yes (1)

Exam item: So what was the verdict on `NC(=O)c1ccc2nc(-c3ccc(C4(N)CCC4)cc3)c(-c3ccccc3)n2n1` in this test?
Marked response: yes (1)

Exam item: So what was the verdict on `Cc1nc2ccc(-n3ncc(C(=O)c4cc5ccccc5[nH]4)c3N)cc2[nH]1` in this test?
Marked response: yes (1)

Exam item: So what was the verdict on `CNC(=O)[C@H]1O[C@@H](n2cnc3c(NCc4cccc(I)c4)nc(Cl)nc32)[C@H](O)[C@@H]1O` in this test?
Marked response: no (0)

Exam item: So what was the verdict on `C/C=C/C=C/C(=O)O` in this test?
Marked response: no (0)

Exam item: So what was the verdict on `COc1ccc2c(c1)N(C[C@H](C)CN(C)C)c1ccccc1S2` in this test?
Marked response: yes (1)

Exam item: So what was the verdict on `Nc1nc2cc(-c3ccc4ncc(C(=O)N5CCOCC5)n4c3)ccc2o1` in this test?
Marked response: no (0)

Exam item: So what was the verdict on `C=CC(=O)Nc1ccc(F)c(-c2ncnc3[nH]cc(C(=O)OCC)c23)c1` in this test?
Marked response: no (0)

Exam item: So what was the verdict on COc1ccc(-c2cc(C(O)C3CCCCN3)c3ccccc3n2)cc1 (configuration not stated) in this test?
Marked response: yes (1)

Exam item: So what was the verdict on N[C@@H](CCC(=O)O)C(=O)N[C@@H](Cc1c[nH]c2ccccc12)C(=O)O (H-Glu-Trp-OH) in this test?
Marked response: no (0)

Exam item: So what was the verdict on `CNCc1ccc(C)c(NC(=O)c2ccc(Nc3nc(-c4ccccc4)c4ccccc4n3)cc2)c1` in this test?
Marked response: yes (1)

----------
- Target Desc: Luciferin 4-monooxygenase (Photinus pyralis) (UniProt P08659)
- Sequence (P08659 whole entry, looked up): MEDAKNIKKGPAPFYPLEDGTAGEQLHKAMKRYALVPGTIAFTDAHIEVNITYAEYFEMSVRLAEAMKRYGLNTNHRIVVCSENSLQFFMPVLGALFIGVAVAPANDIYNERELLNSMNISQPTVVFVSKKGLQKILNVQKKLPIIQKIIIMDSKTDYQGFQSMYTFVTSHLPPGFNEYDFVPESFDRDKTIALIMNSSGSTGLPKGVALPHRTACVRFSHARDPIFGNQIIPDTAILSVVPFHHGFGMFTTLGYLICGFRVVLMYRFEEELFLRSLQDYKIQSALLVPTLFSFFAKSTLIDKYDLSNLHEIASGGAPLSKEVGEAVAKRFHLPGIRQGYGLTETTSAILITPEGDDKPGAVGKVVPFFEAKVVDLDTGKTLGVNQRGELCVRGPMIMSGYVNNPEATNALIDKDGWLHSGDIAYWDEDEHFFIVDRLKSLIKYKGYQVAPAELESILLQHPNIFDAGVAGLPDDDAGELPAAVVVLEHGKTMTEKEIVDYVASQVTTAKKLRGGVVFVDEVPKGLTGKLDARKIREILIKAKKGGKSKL
- Test Name: Firefly luciferase counterscreen qHTS: Assay Interference Panel against the NCATS CANVASS Library (AID 1347363)
- Conditions Used: purified firefly luciferase, luminescence inhibition, 5 min; series mostly up to 57.5 µM
Calls of active or inactive are those of the source. Calls come from the whole dose curve; as a rule, active = well fitted curve in the direction sought with a large enough effect; inconclusive = small, poorly fitted or top-dose-only effect, or another doubt; inactive = no such curve, though single readings can be large or run the other way.
Parameter call: string, one of active, inactive

C=CC(C)(C)[C@@]12C[C@H]3C(=O)N/C(=C/c4cnc[nH]4)C(=O)N3[C@@H]1Nc1ccccc12: inactive
C=CC(C)(C)[C@@]12C[C@H]3C(=O)N/C(=C\c4cnc[nH]4)C(=O)N3[C@@H]1Nc1ccccc12: inactive
CO[C@@]12c3c(C)cc(O)c4c(=O)occ(c34)C(=O)[C@@H]1[C@]13COC(=O)c4c(O)cc(C)c(c41)C(=O)[C@H]2[C@@H]3OC(C)=O: inactive
CCCCC1CC[C@H]2CCCC(CCC)N12 (some centres undefined): inactive
C[N+](C)(C)CCc1c[nH]c2ccccc12: inactive
C/C=C1/CN2CC[C@]34C(=C(C(=O)OC)[C@H]1C[C@H]23)Nc1ccccc14: inactive
COC1C(O)C(C)OC(OC2C(Oc3cccc4c(O)c5c(=O)oc6ccc(C)c7c(=O)oc(c34)c5c67)OC(C)C(O)C2O)C1O (centres undefined): inactive
CO[C@H]1[C@H](O[C@H]2CC[C@]3(C=O)[C@H]4CC[C@]5(C)[C@@H](C6=CC(=O)OC6)CC[C@]5(O)[C@@H]4CC[C@]3(O)C2)O[C@H](C)[C@H](O)[C@@H]1OC: inactive

Exam item: So what was the verdict on `c1ccc2nc3c(cc2c1)[nH]c1ccccc13` in this test?
Marked response: active

Exam item: So what was the verdict on CC(C)CC1C(=O)O[C@H](C(C)C)C(=O)N(C)C(CC(C)C)C(=O)O[C@@H](C(C)C)C(=O)N(C)C(CC(C)C)C(=O)O[C@H](C(C)C)C(=O)N(C)C(CC(C)C)C(=O)O[C@@H](C(C)C)C(=O)N1C (some centres undefined) in this test?
Marked response: inactive

Exam item: So what was the verdict on `CCC(=O)N[C@@H](C[C@H](C)C(Cl)(Cl)Cl)C(=O)N1C(=O)C=C(OC)[C@@H]1C[C@H](C)C(Cl)Cl` in this test?
Marked response: inactive

Exam item: So what was the verdict on `C/C=C(\C)C(=O)O[C@@H]1[C@@H](O)[C@@H]2O[C@H]3[C@H](O[C@@H](CCCCC)CCCCCCC(=O)CCC(=O)OC[C@@H](O2)[C@H]1OC(=O)/C=C/c1ccccc1)O[C@H](C)[C@H](OC(C)=O)[C@@H]3O` in this test?
Marked response: inactive

Exam item: So what was the verdict on `C/C(=C\[C@H](C)C(=O)C[C@H](O)CC1CC(=O)NC(=O)C1)[C@@H]1OC(=O)/C=C/CC/C=C/C=C/[C@@H]1C` in this test?
Marked response: inactive

Exam item: So what was the verdict on C[C@]12CC(O)C3[C@@H](CC[C@@H]4C[C@@H](O)CC[C@]34CO)[C@@]1(O)CC[C@@H]2C1=CC(=O)OC1 (some centres undefined) in this test?
Marked response: inactive

Exam item: So what was the verdict on `CC[C@]12C=CCN3CC[C@]4(C(=C(C(=O)OC)C1)Nc1ccccc14)[C@@H]32` in this test?
Marked response: inactive
